Data origin: patent US20110130380A1

# tgt: Cdk9/cyclinT1 (Homo sapiens, UniProt P50750)
# Sequence (P50750 whole entry): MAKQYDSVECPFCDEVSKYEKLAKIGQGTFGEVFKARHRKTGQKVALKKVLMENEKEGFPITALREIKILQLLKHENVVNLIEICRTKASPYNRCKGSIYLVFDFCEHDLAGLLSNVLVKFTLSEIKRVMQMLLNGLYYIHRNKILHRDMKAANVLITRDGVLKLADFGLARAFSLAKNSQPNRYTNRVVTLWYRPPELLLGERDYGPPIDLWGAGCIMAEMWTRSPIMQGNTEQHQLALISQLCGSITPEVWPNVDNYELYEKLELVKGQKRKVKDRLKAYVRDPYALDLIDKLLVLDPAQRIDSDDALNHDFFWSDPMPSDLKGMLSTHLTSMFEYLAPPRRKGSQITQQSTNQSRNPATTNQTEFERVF
# Sequence (O60563 whole entry partner): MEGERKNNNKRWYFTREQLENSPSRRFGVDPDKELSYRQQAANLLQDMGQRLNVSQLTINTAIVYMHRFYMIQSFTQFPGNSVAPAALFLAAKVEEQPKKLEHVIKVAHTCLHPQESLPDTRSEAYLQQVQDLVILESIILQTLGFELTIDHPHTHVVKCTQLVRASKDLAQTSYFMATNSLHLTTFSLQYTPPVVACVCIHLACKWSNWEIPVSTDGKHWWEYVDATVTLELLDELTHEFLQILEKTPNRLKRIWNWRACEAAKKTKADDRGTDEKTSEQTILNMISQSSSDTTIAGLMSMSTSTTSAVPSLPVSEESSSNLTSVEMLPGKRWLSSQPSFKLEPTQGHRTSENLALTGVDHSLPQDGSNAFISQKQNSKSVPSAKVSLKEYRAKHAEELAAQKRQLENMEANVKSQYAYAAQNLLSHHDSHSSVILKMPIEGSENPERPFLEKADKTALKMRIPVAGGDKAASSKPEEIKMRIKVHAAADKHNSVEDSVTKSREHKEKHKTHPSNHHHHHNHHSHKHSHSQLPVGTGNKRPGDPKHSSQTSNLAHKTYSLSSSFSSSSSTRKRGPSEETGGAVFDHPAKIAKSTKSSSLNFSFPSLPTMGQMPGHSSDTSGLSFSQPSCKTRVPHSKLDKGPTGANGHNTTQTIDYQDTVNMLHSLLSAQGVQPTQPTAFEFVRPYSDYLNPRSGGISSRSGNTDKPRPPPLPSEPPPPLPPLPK
# assay.text: Cdk9/cyclinT1 IMAP Protocol (fluorescence polarization kinase assay)
# study.conditions: Cdk9_cyclinT1_IC50, Table V; generated using one of the two Cdk9/cyclinT1 assays (IMAP or Alpha Screen), not stated which; ATP 6 uM
pIC50: −log10 of the molar value.
readout.label: pIC50

compound=COC(=O)N1CCC[C@H](C(=O)Nc2cc(-c3cccc(NCC4CCOCC4)n3)c(Cl)cn2)C1 tgt="Cdk9/cyclinT1 (Homo sapiens, UniProt P50750)" result_operator== obs_value=8.10
compound=O=C(Nc1cc(-c2nc(NCC3CCOCC3)ccc2Cl)ccn1)[C@@H]1CCCNC1 tgt="Cdk9/cyclinT1 (Homo sapiens, UniProt P50750)" result_operator== obs_value=8.40
compound="C[C@H]1CC[C@@H](C(=O)Nc2cc(-c3cccc(NCC4CCOCC4)n3)c(Cl)cn2)CN1 (single isomer, unassigned) [Example 141]" tgt="Cdk9/cyclinT1 (Homo sapiens, UniProt P50750)" result_operator=> obs_value=8.10
compound="O=C(Nc1cc(-c2cccc(NCC3CCOCC3)n2)c(Cl)cn1)[C@@H]1CC[C@H](C(F)(F)F)NC1 (racemic)" tgt="Cdk9/cyclinT1 (Homo sapiens, UniProt P50750)" result_operator== obs_value=7.96
compound="C[C@H]1CC[C@H](C(=O)Nc2cc(-c3cccc(NC[C@H]4CCOC(C)(C)C4)n3)c(Cl)cn2)CN1 (single isomer, unassigned)" tgt="Cdk9/cyclinT1 (Homo sapiens, UniProt P50750)" result_operator== obs_value=8.22
compound=O=C(Nc1cc(-c2ccc(Cl)c(NCC3CCOCC3)n2)c(Cl)cn1)[C@@H]1CCCNC1 tgt="Cdk9/cyclinT1 (Homo sapiens, UniProt P50750)" result_operator=> obs_value=8.10
compound=CC(C)S(=O)(=O)N1CCC[C@H](C(=O)Nc2cc(-c3nc(NCC4CCOCC4)ccc3Cl)c(Cl)cn2)C1 tgt="Cdk9/cyclinT1 (Homo sapiens, UniProt P50750)" result_operator=> obs_value=8.10

---

# tgt: Cdk9/cyclinT1 (Homo sapiens, UniProt P50750)
# assay.text: Cdk9/cyclinT1 IMAP Protocol (fluorescence polarization kinase assay)
# study.conditions: Cdk9_cyclinT1_IC50, Table V; generated using one of the two Cdk9/cyclinT1 assays (IMAP or Alpha Screen), not stated which; ATP 6 uM
pIC50: −log10 of the molar value.
Use 8 as the dividing line for pIC50, with the line itself on the Criterion met side and lower values as Criterion not met.

compound=[2H]C([2H])(Nc1cccc(-c2cc(NC(=O)[C@H]3CNCCO3)ncc2Cl)n1)C1CCOCC1 assigned_class="Criterion not met"
compound=CN(CC1CCOCC1)c1cccc(-c2cc(NC(=O)[C@@H]3CCCNC3)ncc2Cl)n1 assigned_class="Criterion met"
compound="CC1(C)CO[C@@H](CNc2cccc(-c3cc(NC(=O)[C@@H]4CCCNC4)ncc3Cl)n2)CO1 (single isomer, unassigned)" assigned_class="Criterion met"
compound=COC1(CNc2ccc(Cl)c(-c3cc(NC(=O)[C@@H]4CCCNC4)ncc3Cl)n2)CCOCC1 assigned_class="Criterion met"
compound=O=C(Nc1cc(-c2nc(NCC3CCOCC3)ccc2Cl)c(F)cn1)[C@H]1CNCCO1 assigned_class="Criterion not met"
compound=CS(=O)(=O)N[C@H]1CC[C@@H](C(=O)Nc2cc(-c3nc(NCC4CCOCC4)ccc3Cl)c(Cl)cn2)C1 assigned_class="Criterion met"
compound="CC1(C)C[C@H](CNc2nc(-c3cc(NC(=O)[C@@H]4CCCNC4)ncc3Cl)ccc2F)CCO1 (single isomer, unassigned)" assigned_class="Criterion met"
compound=O=C(Nc1cc(-c2cccc(NCc3ccc(F)cc3)n2)c(Cl)cn1)[C@@H]1CCCNC1 assigned_class="Criterion met"
compound="CC1(C)CC(CNc2nc(-c3cc(NC(=O)[C@@H]4CCCNC4)ncc3Cl)ccc2F)CCO1 (some centres unmarked)" assigned_class="Criterion met"
compound="CC1(C)C[C@@H](CNc2cccc(-c3cc(NC(=O)[C@H]4CNCCO4)ncc3Cl)n2)CCO1 (single isomer, unassigned)" assigned_class="Criterion not met"
compound="CC1(C)C[C@H](CNc2cccc(-c3cc(NC(=O)[C@@H]4CCCNC4)ncc3Cl)n2)CCO1 (single isomer, unassigned)" assigned_class="Criterion met"
compound="O=C(Nc1cc(-c2cccc(NCC3COCCO3)n2)c(Cl)cn1)[C@@H]1CCCNC1 (some centres unmarked)" assigned_class="Criterion met"
compound="CC1(C)C[C@@H](CNc2cccc(-c3cc(NC(=O)[C@@H]4CCCNC4)ncc3Cl)n2)CCO1 (single isomer, unassigned)" assigned_class="Criterion met"
compound=O=C(Nc1cc(-c2nc(NCC3CCOCC3)c(Cl)cc2Cl)c(Cl)cn1)[C@@H]1CCCNC1 assigned_class="Criterion met"
compound="CCN1CCCC(C(=O)Nc2cc(-c3cccc(NCC4CCOCC4)n3)c(Cl)cn2)C1 (single isomer, unassigned) [Example 14]" assigned_class="Criterion not met"
compound="O=C(Nc1cc(-c2nc(NCC3CCOCC3)ccc2Cl)c(Cl)cn1)C1CCCCNC1 (centres unmarked)" assigned_class="Criterion met"
compound=CO[C@H]1CNC[C@@H]1C(=O)Nc1cc(-c2nc(NCC3CCOCC3)c(F)cc2Cl)c(Cl)cn1 assigned_class="Criterion met"
compound=O=C(Nc1cc(-c2ccc(F)c(NCC3CCOCC3)n2)c(Cl)cn1)[C@@H]1CCCNC1 assigned_class="Criterion met"
compound="C[C@@H]1CC[C@@H](C(=O)Nc2cc(-c3cccc(NC[C@H]4CCOC(C)(C)C4)n3)c(Cl)cn2)CN1 (mixture of isomers) [Example 227]" assigned_class="Criterion met"
compound="O=C(Nc1cc(-c2cccc(NCC3CCCOC3)n2)c(Cl)cn1)[C@H]1CCCNC1 (some centres unmarked)" assigned_class="Criterion not met"
compound=COCCNc1cccc(-c2cc(NC(=O)[C@@H]3CCCNC3)ncc2Cl)n1 assigned_class="Criterion not met"
compound=O=C(Nc1cc(-c2cccc(N3CCOCC3)n2)c(Cl)cn1)[C@@H]1CCCNC1 assigned_class="Criterion not met"
compound=O=C(Nc1cc(-c2cccc(NCCN3CCCC3=O)n2)c(Cl)cn1)[C@@H]1CCCNC1 assigned_class="Criterion not met"
compound=CC(=O)NCCNc1cccc(-c2cc(NC(=O)[C@@H]3CCCNC3)ncc2Cl)n1 assigned_class="Criterion not met"
compound=O=C(Nc1cc(-c2cccc(NCC3CCCCC3)n2)c(Cl)cn1)[C@H]1CCCNC1 assigned_class="Criterion not met"

---

Measured IC50, listed per entry for reference.
# tgt: Cdk9/cyclinT1 (Homo sapiens)
# assay.text: Cdk9/cyclinT1 IMAP Protocol (fluorescence polarization kinase assay)
# study.conditions: Cdk9_cyclinT1_IC50, generated using one of the two Cdk9/cyclinT1 assays (IMAP or Alpha Screen), not specified per value; ATP 6 uM
readout.label: IC50 (µM)

compound=O=C(Nc1cc(-c2cncc(NCC3CCOCC3)c2)c(Cl)cn1)[C@@H]1CCCNC1 result_operator=< obs_value=0.008
compound="O=C(Nc1cc(-c2cc(NCC3CCOCC3)cnc2Cl)c(Cl)cn1)C1CNCCOC1 (stereo not shown)" result_operator== obs_value=0.006
compound=CC(C)(C)OC(=O)N1CCC[C@@H](C(=O)Nc2cc(-c3cncc(NCC4CCOCC4)c3)c(Cl)cn2)C1 result_operator== obs_value=0.081
compound=CC(C)(C)OC(=O)N1CCC[C@@H](C(=O)Nc2cc(-c3cnc(Cl)c(NCC4CCOCC4)c3)c(Cl)cn2)C1 result_operator== obs_value=0.025
compound=Cc1ccncc1-c1cc(NC(=O)[C@@H]2CCCNC2)ncc1Cl result_operator== obs_value=0.627
compound=O=C(Nc1cc(-c2cc(NCC3CCOCC3)cnc2Cl)c(Cl)cn1)[C@@H]1CCCNC1 result_operator=< obs_value=0.008
compound=Cc1ncc(-c2cc(NC(=O)C(C)C)ncc2Cl)cc1NCC1CCOCC1 result_operator== obs_value=0.147
compound=O=C(Nc1cc(-c2cccnc2)c(Cl)cn1)[C@@H]1CCCNC1 result_operator== obs_value=0.376
compound=O=C(Nc1cc(-c2cncc(F)c2)c(Cl)cn1)[C@@H]1CCCNC1 result_operator== obs_value=0.531
compound=CC(C)C(=O)Nc1cc(-c2cc(NCC3CCOCC3)cnc2Cl)c(Cl)cn1 result_operator=< obs_value=0.008
compound=COc1cncc(-c2cc(NC(=O)[C@@H]3CCCNC3)ncc2Cl)c1 result_operator== obs_value=0.239
compound=Cc1ncc(-c2cc(NC(=O)[C@@H]3CCCNC3)ncc2Cl)cc1NCC1CCOCC1 result_operator== obs_value=0.103
compound=O=C(Nc1cc(-c2cnc(Cl)c(NCC3CCOCC3)c2)c(Cl)cn1)[C@@H]1CCCNC1 result_operator=< obs_value=0.008
compound="CC1(C)CC(CNc2cnc(Cl)c(-c3cc(NC(=O)[C@H]4CNCCO4)ncc3Cl)c2)CCO1 (stereo partly shown)" result_operator== obs_value=0.004
compound=O=C(Nc1cc(-c2cc(NCC3CCOCC3)cnc2Cl)c(Cl)cn1)[C@H]1CNCCO1 result_operator== obs_value=0.003
compound=COc1ccncc1-c1cc(NC(=O)[C@@H]2CCCNC2)ncc1Cl result_operator== obs_value=0.046
